pIC50: −log10 of the molar value.
reported endpoint: pIC50

Short answer on Factor D (Homo sapiens, UniProt P00746) for Cc1ncc(-c2cn(CC(=O)N3C[C@H](F)C[C@H]3C(=O)NCc3cccc(Cl)c3F)c3ncnc(N)c23)cn1 [Compound 117d] , pIC50: 6.00 to 7.00

Tested on Factor D (Homo sapiens, UniProt P00746): Nc1ncnc2c1c1c(C(=O)O)cccc1n2CC(=O)N1[C@@H]2C[C@@H]2C[C@H]1C(=O)Nc1cccc(Br)n1 [Compound 224b] . Observed pIC50: < 6.00

The observed pIC50 for Nc1ncnc2c1c1ccccc1n2CC(=O)N1[C@@H]2C[C@@H]2C[C@H]1C(=O)Nc1cccc(Br)n1 [Compound 4b] when tested with Factor D (Homo sapiens, UniProt P00746) stands at > 7.00

Cc1cc2c(cc1F)c1c(N)ncnc1n2CC(=O)N1[C@@H]2C[C@@H]2C[C@H]1C(=O)Nc1cccc(Br)n1 [Compound 381g] on Factor D (Homo sapiens, UniProt P00746) gives pIC50 = > 7.00

The measured pIC50 that Nc1ncnc2c1c1cc(-c3cccnc3)ccc1n2CC(=O)N1[C@@H]2C[C@@H]2C[C@H]1C(=O)Nc1cccc(Br)n1 [Compound 273c] showed for Factor D (Homo sapiens, UniProt P00746) is > 7.00

NC[C@@H]1C[C@@H](C(=O)Nc2cccc(Br)n2)N(C(=O)Cn2c3ccc(C(F)(F)F)cc3c3c(N)ncnc32)C1 [Compound 211e] tested on Factor D (Homo sapiens, UniProt P00746) gave pIC50: 6.00 to 7.00

The observed pIC50 for COc1ccc2c(c1)c1c(N)ncnc1n2CC(=O)N1[C@@H]2C[C@@H]2C[C@H]1C(=O)Nc1cccc(Br)n1 [Compound 38e] when tested with Factor D (Homo sapiens, UniProt P00746) stands at > 7.00

Item Cc1cc(C(F)(F)F)cc2c3c(N)ncnc3n(CC(=O)N3[C@@H]4C[C@@H]4C[C@H]3C(=O)Nc3cccc(Cl)n3)c12 [Compound 291a] ; assay system Factor D (Homo sapiens, UniProt P00746); pIC50 reported as > 7.00

Note to self: pIC50 of Nc1ncc2ncn(CC(=O)N3[C@@H]4C[C@@H]4C[C@H]3C(=O)Nc3cccc(Br)n3)c2n1 [Compound 89b] with Factor D (Homo sapiens, UniProt P00746) was 6.00 to 7.00

Reading of pIC50 for Nc1ncnc2c1ncn2CC(=O)N1[C@@H]2C[C@@H]2C[C@H]1C(=O)N[C@@H]1C[C@H]1c1ccccc1Cl [Compound 98b] with Factor D (Homo sapiens, UniProt P00746): 6.00 to 7.00

Factor D (Homo sapiens, UniProt P00746) assay, molecule COc1cccc2c3c(N)ncnc3n(CC(=O)N3[C@H](C(=O)Nc4cccc(Br)n4)C[C@@]4(C)C[C@@H]34)c12 [Compound 173a] , recorded pIC50 = > 7.00

Fill in: Factor D (Homo sapiens, UniProt P00746) pIC50 for C[C@@]12C[C@@H](C(=O)Nc3cccc(Br)n3)N(C(=O)Cn3c4ccc(O)cc4c4c(N)ncnc43)[C@@H]1C2 [Compound 164a] = > 7.00

Short answer on Factor D (Homo sapiens, UniProt P00746) for Nc1c(C=O)cnc2c1ccn2CC(=O)N1[C@@H]2C[C@@H]2C[C@H]1C(=O)Nc1cccc(Br)n1 [Compound 156e] , pIC50: 6.00 to 7.00

Reported pIC50 (Factor D (Homo sapiens, UniProt P00746)) for entry Nc1ncnc2c1c1cc(Br)cc(F)c1n2CC(=O)N1[C@@H]2C[C@@H]2C[C@H]1C(=O)Nc1cccc(Br)n1 [Compound 376g] is > 7.00

====

pIC50: −log10 of the molar value.
reported endpoint: pIC50

# value of pIC50, Factor D (Homo sapiens, UniProt P00746), item Cc1ncc(NC(=O)[C@@H]2C[C@H]3C[C@H]3N2C(=O)Cn2c3ncnc(N)c3c3cc(C(F)(F)F)cc(C)c32)nc1Br [Compound 313b] = > 7.00

Item: Nc1ncnc2c1c1cc(-c3ccccc3)ccc1n2CC(=O)N1[C@@H]2C[C@@H]2C[C@H]1C(=O)Nc1cccc(Br)n1 [Compound 62c] | System: Factor D (Homo sapiens, UniProt P00746) | pIC50: > 7.00

Observed pIC50 on Factor D (Homo sapiens, UniProt P00746), entry Cc1cc(-c2ccc(C(F)(F)F)nc2)cc2c3c(N)ncnc3n(CC(=O)N3[C@@H]4C[C@@H]4C[C@H]3C(=O)Nc3cccc(Br)n3)c12 [Compound 356c] , equals > 7.00

// assay Factor D (Homo sapiens, UniProt P00746), entry C[C@@H]1C[C@@H](C(=O)Nc2cccc(Br)n2)N(C(=O)Cn2c3ccc(C(F)(F)F)cc3c3c(N)ncnc32)C1 [Compound 206c] , pIC50 value = 6.00 to 7.00

The value of pIC50 recorded for COc1cccc(-c2cc(C)c3c(c2)c2c(N)ncnc2n3CC(=O)N2[C@@H]3C[C@@H]3C[C@H]2C(=O)Nc2cccc(Br)n2)c1 [Compound 341c] when tested on Factor D (Homo sapiens, UniProt P00746) reads > 7.00

Record C[C@@]12C[C@@H](C(=O)Nc3cccc(Br)n3)N(C(=O)Cn3c4ccc(Cl)cc4c4c(N)ncnc43)[C@@H]1C2 [Compound 237a] has Factor D (Homo sapiens, UniProt P00746) pIC50 equal to > 7.00

====

For each record, write down the corresponding IC50.

For the compound Nc1c(C(=O)O)cnc2c1ccn2CC(=O)N1[C@@H]2C[C@@H]2C[C@H]1C(=O)Nc1cccc(Br)n1 [Compound 155f] , the measured IC50 on Factor D (Homo sapiens, UniProt P00746) was > 1 µM

Reported IC50 (Factor D (Homo sapiens, UniProt P00746)) for entry COc1cc(Br)nc(NC(=O)[C@@H]2C[C@H]3C[C@H]3N2C(=O)Cn2c3ncnc(N)c3c3cc(C(F)(F)F)cc(C)c32)c1 [Compound 344c] is < 0.1 µM

Observed IC50, Factor D (Homo sapiens, UniProt P00746), Nc1ncnc2c1c1cc(Br)c(F)cc1n2CC(=O)N1[C@@H]2C[C@@H]2C[C@H]1C(=O)Nc1cccc(Br)n1 [Compound 389g] : < 0.1 µM

Item COc1cccc2c1c1c(N)ncnc1n2CC(=O)N1[C@H](C(=O)Nc2nc(Br)ccc2C)C[C@@]2(C)C[C@@H]12 [Compound 249a] ; assay system Factor D (Homo sapiens, UniProt P00746); IC50 reported as < 0.1 µM

Reported IC50 (Factor D (Homo sapiens, UniProt P00746)) for entry C[C@@]12C[C@@H](C(=O)Nc3cccc(Br)n3)N(C(=O)Cn3c4ccc(C(N)=O)cc4c4c(N)ncnc43)[C@@H]1C2 [Compound 203a] is < 0.1 µM

Measured IC50 for this entry C[C@@]12C[C@@H](C(=O)Nc3cccc(Br)n3)N(C(=O)Cn3c4cccc(C(=O)O)c4c4c(N)ncnc43)[C@@H]1C2 [Compound 222a] on Factor D (Homo sapiens, UniProt P00746): > 1 µM

====

Provide the reported pIC50 of each item.
biological target: Factor D (Homo sapiens)
Sequence (P00746 26-253): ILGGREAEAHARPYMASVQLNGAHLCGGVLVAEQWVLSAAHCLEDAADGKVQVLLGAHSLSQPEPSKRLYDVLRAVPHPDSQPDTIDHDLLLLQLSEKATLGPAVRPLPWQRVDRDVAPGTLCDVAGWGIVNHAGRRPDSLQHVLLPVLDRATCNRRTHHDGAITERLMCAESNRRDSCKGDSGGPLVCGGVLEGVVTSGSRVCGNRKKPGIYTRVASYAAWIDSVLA
pIC50: −log10 of the molar value.

// NC(=O)c1cnc2c(ccn2CC(=O)N2C[C@H](F)C[C@H]2C(=O)NCc2cccc(Cl)c2F)c1N [Compound 144g] : pIC50 value = 6.00 to 7.00

Consider CC1(C)CCCC(NC(=O)[C@@H]2C[C@H]3C[C@H]3N2C(=O)Cn2cnc3c(N)ncnc32)C1 (stereo partly shown) [Compound 97b] . Its measured pIC50 is < 6.00

Measured pIC50 of Nc1ncnc2c1c(-c1ccc3cc[nH]c3c1)cn2CC(=O)N1C[C@H](F)C[C@H]1C(=O)NCc1cccc(Cl)c1F [Compound 137b] : > 7.00

The reported pIC50 of the compound Cc1cc(C(F)(F)F)cc2c3c(N)ncnc3n(CC(=O)N3CCC[C@H]3C(=O)Nc3cccc(Br)n3)c12 [Compound 306a] was > 7.00

// sample O=C(NCc1cccc(Cl)c1F)[C@@H]1C[C@@H](F)CN1C(=O)Cn1ccc2c3[nH]c(=O)[nH]c(=O)c3cnc21 [Compound 145a] , its pIC50 was 6.00 to 7.00

For this compound ( COc1cc(C)c2c(c1)c1c(N)ncnc1n2CC(=O)N1[C@H](C(=O)Nc2cccc(Br)n2)C[C@@]2(C)C[C@@H]12 [Compound 258a] ), measured pIC50 is > 7.00

The compound identified as Nc1ncnc2c1c1cc(C(=O)O)ccc1n2CC(=O)N1[C@@H]2C[C@@H]2C[C@H]1C(=O)Nc1cccc(Br)n1 [Compound 44a] registered its pIC50 at > 7.00

Noted for Cc1cc(C(F)(F)F)cc2c3c(N)ncnc3n(CC(=O)N3C[C@](C)(F)C[C@H]3C(=O)Nc3cccc(Cl)n3)c12 [Compound 320c] : its pIC50 reads > 7.00

// recorded pIC50 for Nc1ncnc2c1ncn2CC(=O)N1C[C@H](F)C[C@H]1C(=O)NCc1cccc(Cl)c1F [Compound 104a] : > 7.00

Lookup result for COc1cc2c(cc1F)c1c(N)ncnc1n2CC(=O)N1[C@@H]2C[C@@H]2C[C@H]1C(=O)Nc1cccc(Br)n1 [Compound 383g] ; measured pIC50: > 7.00

Form: compound = Cc1cc(-c2cccnc2)cc2c3c(N)ncnc3n(CC(=O)N3[C@H](C(=O)Nc4cccc(Br)n4)C[C@@]4(C)C[C@@H]34)c12 [Compound 289a] ; pIC50 = > 7.00

Looking up Cc1ncc(-c2cc(C)c3c(c2)c2c(N)ncnc2n3CC(=O)N2C[C@H](F)C[C@H]2C(=O)Nc2cccc(Br)n2)cn1 [Compound 312a] , I see its pIC50 listed as > 7.00

Briefly, pIC50 measured for COC(=O)c1ccc2c3c(N)ncnc3n(CC(=O)N3[C@H](C(=O)Nc4cccc(Br)n4)C[C@@]4(C)C[C@@H]34)c2c1 [Compound 42a] : > 7.00
